Assign GFP response vs DMSO to each entry below.
test-summary: RPL19A-GFP modulators, yeast TOR pathway, confirmation, cell-based, S. cerevisiae, flow cytometry, cherry picks, mother/daughter gates (AID 2270)
conditions-used: S. cerevisiae RPL19A-GFP strain, 3 h, measured here: mother cell gate, at 10 µM, stronger effect = lower value, 100 = same GFP as DMSO wells
Numbers only, in %.

Example entries and their recorded answers appear below.
Cc1[nH]c(-c2ccccn2)nc(=S)c1Cl
95.8
O=C1C(Cl)=C(Nc2ccc(F)cc2)C(=O)N1CCc1ccccc1
101
CCNC(=O)/C(C#N)=C/c1c(N2CCN(Cc3ccc4c(c3)OCO4)CC2)nc2c(C)cccn2c1=O
103
Cc1cccc(N2C(=O)CC(Sc3nc(C)c4c(n3)CCCC4)C2=O)c1 (stereo unspecified)
97.2

Please state, for each entry, its recorded GFP response vs DMSO.
1. CCOC(=O)CNc1c(-c2ccccc2)nc2ccc(Cl)cn12
2. O=C(NNC(=O)C1CCCCC1)C(=O)NC1CCCCC1
3. Cc1ccc(S(=O)(=O)c2ccc([N+](=O)[O-])cn2)cc1
4. COc1ccc(C2N(c3ccc(Cl)cc3)N=C(C(C)=O)N(C)N2C(C)=O)cc1 (stereo unspecified)
5. O=C(Nc1c2ccccc2nc2ccccc12)C(Cl)(Cl)Cl

Marked response:
1. 96.4
2. 99.3
3. 84.5
4. 100
5. 83.4

Please state, for each entry, its recorded GFP response vs DMSO.
1. O=C(COC(=O)c1n[nH]c2ccccc12)c1ccc(F)c(F)c1
2. O=C(CSc1cccc[n+]1[O-])c1cc2ccccc2o1

Marked response:
96.3
103

This collection of values is drawn from PubChem BioAssay.
